target: c-Myc/Max/Ebox DNA (Homo sapiens); assay: c-Myc/Max/Ebox DNA AlphaScreen assay; format: binding; set-up: An exemplary assay uses full-length human c-Myc and Max proteins; his6 (cleaved yes); made in house; settings: class symbols; NA: not active under assay conditions; read-out: Myc/Max IC50
Sequence (P01106 16-454): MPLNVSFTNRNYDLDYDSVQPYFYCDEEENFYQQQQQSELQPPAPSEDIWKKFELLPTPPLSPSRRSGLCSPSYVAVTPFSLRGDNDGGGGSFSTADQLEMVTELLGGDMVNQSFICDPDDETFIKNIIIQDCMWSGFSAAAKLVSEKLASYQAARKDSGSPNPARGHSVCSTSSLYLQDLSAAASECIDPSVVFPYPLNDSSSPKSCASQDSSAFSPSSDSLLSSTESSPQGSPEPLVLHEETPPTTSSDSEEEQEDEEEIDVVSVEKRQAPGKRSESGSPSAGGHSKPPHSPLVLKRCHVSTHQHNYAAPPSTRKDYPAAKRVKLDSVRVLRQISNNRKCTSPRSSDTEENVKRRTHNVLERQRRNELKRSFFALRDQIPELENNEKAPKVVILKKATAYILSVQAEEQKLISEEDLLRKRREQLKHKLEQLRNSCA
Give IC50 for every item shown.

Recall the recorded IC50 for Cc1ccc(C)n1-c1cc(C(=O)N2CCCC(c3ccc(C(=O)O)cc3)C2)ccc1C(=O)O (centres unmarked) [Compound 210] with c-Myc/Max/Ebox DNA (Homo sapiens) and state it.
10 to 100 µM

Recall the recorded IC50 for "Cc1ccc(C)n1-c1ncccc1C(=O)NS(C)(=O)=O" with c-Myc/Max/Ebox DNA (Homo sapiens) and state it.
≥ 100 µM

Recall the recorded IC50 for "Cc1ccc(C)n1-c1cc(-c2nnc(-c3cccc(C(=O)NS(C)(=O)=O)c3)o2)ccc1C(=O)O" with c-Myc/Max/Ebox DNA (Homo sapiens) and state it.
10 to 100 µM

Recall the recorded IC50 for Cc1ccccc1C1CCCN(C(=O)c2ccc(C(=O)O)c(-n3c(C)ccc3C)c2)C1 (centres unmarked) with c-Myc/Max/Ebox DNA (Homo sapiens) and state it.
≥ 100 µM

Recall the recorded IC50 for Cc1ccc(C)n1-c1cc(C(=O)N2CCCC(c3ccc(C(=O)NS(C)(=O)=O)cc3)C2)ccc1C(=O)O (centres unmarked) with c-Myc/Max/Ebox DNA (Homo sapiens) and state it.
1 to 10 µM

Recall the recorded IC50 for Cc1ccc(C)n1-c1cc(C(=O)N2CCCC(c3ccc(Cl)cc3)C2)ccc1C(=O)O (centres unmarked) with c-Myc/Max/Ebox DNA (Homo sapiens) and state it.
10 to 100 µM

Recall the recorded IC50 for Cc1ccc(C)n1-c1cc(C(=O)N2CCCC(c3ccc(CC(=O)O)cc3)C2)ccc1C(=O)O (centres unmarked) with c-Myc/Max/Ebox DNA (Homo sapiens) and state it.
1 to 10 µM

Recall the recorded IC50 for "Cc1ccc(C)n1-c1cc(C(=O)N2CCN(C(=O)c3cncc(F)c3)CC2)ccc1C(=O)O" with c-Myc/Max/Ebox DNA (Homo sapiens) and state it.
10 to 100 µM

Recall the recorded IC50 for "COc1cccc(C(=O)N2CCN(C(=O)c3ccc(C(=O)O)c(-n4c(C)ccc4C)c3)CC2)c1" with c-Myc/Max/Ebox DNA (Homo sapiens) and state it.
10 to 100 µM

Recall the recorded IC50 for "Cc1ccc(C)n1-c1cc(C(=O)N2C[C@H](c3ccccc3)[C@@H](O)C2)ccc1C(=O)O" with c-Myc/Max/Ebox DNA (Homo sapiens) and state it.
10 to 100 µM

Recall the recorded IC50 for "Cc1ccc(C)n1-c1cc(C(=O)N2CCN(c3ccc(C(=O)O)cc3)CC2)ccc1C(=O)O" with c-Myc/Max/Ebox DNA (Homo sapiens) and state it.
1 to 10 µM

Recall the recorded IC50 for Cc1ccc(C)n1-c1cc(C(=O)N2CCCC(c3ccccc3)C2)ccc1C(=O)O (centres unmarked) with c-Myc/Max/Ebox DNA (Homo sapiens) and state it.
10 to 100 µM

Recall the recorded IC50 for "Cc1ccc(C)n1-c1cc(-c2nnc(-c3ccc(O)c(O)c3O)o2)ccc1C(=O)O" with c-Myc/Max/Ebox DNA (Homo sapiens) and state it.
< 1 µM

Recall the recorded IC50 for "COc1ccc(C(=O)N2CCN(C(=O)c3ccc(C(=O)O)c(-n4c(C)ccc4C)c3)CC2)cc1" with c-Myc/Max/Ebox DNA (Homo sapiens) and state it.
10 to 100 µM

Recall the recorded IC50 for "Cc1ccc(C)n1-c1cc(C(=O)N2CCC=C(c3cccc(C(=O)O)c3)C2)ccc1C(=O)O" with c-Myc/Max/Ebox DNA (Homo sapiens) and state it.
10 to 100 µM

Recall the recorded IC50 for "Cc1ccc(C)n1-c1cc(C(=O)O)ccc1C(=O)NS(C)(=O)=O" with c-Myc/Max/Ebox DNA (Homo sapiens) and state it.
10 to 100 µM

Recall the recorded IC50 for Cc1ccc(C)n1-c1cc(C(=O)N2CCCC(c3ccccc3O)C2)ccc1C(=O)O (centres unmarked) with c-Myc/Max/Ebox DNA (Homo sapiens) and state it.
10 to 100 µM

Recall the recorded IC50 for Cc1ccc(C)n1-c1cc(C(=O)N2CCCC(c3cccc(C(=O)O)c3)C2)ccc1C(=O)O (centres unmarked) with c-Myc/Max/Ebox DNA (Homo sapiens) and state it.
1 to 10 µM

Recall the recorded IC50 for "Cc1ccc(C)n1-c1ccccc1C(=O)NS(C)(=O)=O" with c-Myc/Max/Ebox DNA (Homo sapiens) and state it.
10 to 100 µM

Recall the recorded IC50 for "Cc1ccc(C)n1-c1cc(C(=O)N2CCN(C(=O)c3cccnc3)CC2)ccc1C(=O)O" with c-Myc/Max/Ebox DNA (Homo sapiens) and state it.
10 to 100 µM

Recall the recorded IC50 for "Cc1ccc(C)n1-c1cc(-c2nnc(-c3cccc(C(=O)O)c3)o2)ccc1C(=O)O" with c-Myc/Max/Ebox DNA (Homo sapiens) and state it.
10 to 100 µM

Recall the recorded IC50 for "COc1ccccc1C(=O)N1CCN(C(=O)c2ccc(C(=O)O)c(-n3c(C)ccc3C)c2)CC1" with c-Myc/Max/Ebox DNA (Homo sapiens) and state it.
≥ 100 µM

Recall the recorded IC50 for "Cc1ccc(C)n1-c1ccccc1C(=O)NS(=O)(=O)C1CC1" with c-Myc/Max/Ebox DNA (Homo sapiens) and state it.
≥ 100 µM

Recall the recorded IC50 for "CC(=O)OCOC(=O)c1ccccc1-n1c(C)ccc1C" with c-Myc/Max/Ebox DNA (Homo sapiens) and state it.
≥ 100 µM

Recall the recorded IC50 for COc1cccc(C2CCCN(C(=O)c3ccc(C(=O)O)c(-n4c(C)ccc4C)c3)C2)c1 (centres unmarked) with c-Myc/Max/Ebox DNA (Homo sapiens) and state it.
1 to 10 µM

Recall the recorded IC50 for "Cc1ccc(C)n1-c1ccccc1C(=O)O" with c-Myc/Max/Ebox DNA (Homo sapiens) and state it.
10 to 100 µM
